# Lookup of reported scaled lipid accumulation score keyed by entry
# Tested on: primary human hepatic stellate cells (donor 1)
# testDescription: scaled lipid accumulation score (0 = DMSO-like, 1 = nortriptyline-like); higher = stronger HSC inactivation (lipid re-accumulation), active = hit call of the paper
# details: 48 h
Counter-ions that a name gives are not always drawn. Hit rate of the full screen: of about 5,800 compounds, about 620 (11%) showed activity. The sample holds actives, similar compounds and a random draw of the others, so the mix is not that of the screen.

Sample records with scaled lipid accumulation score:
CC(C)NCC(O)c1ccc(O)c(O)c1 (single isomer, unassigned; (-)) [(-)-Isoproterenol hydrochloride] | ≤ 0 (inactive)
COc1cc(C(=O)NCc2ccc(OCCN(C)C)cc2)cc(OC)c1OC [Trimethobenzamide hydrochloride] | ≤ 0 (inactive)
CC(C)COCC(CN(Cc1ccccc1)c1ccccc1)N1CCCC1 (configuration not stated) [Bepridil hydrochloride] | 0.677 (inactive)
O=C1NCN(c2ccccc2)C12CCN(CCCC(c1ccc(F)cc1)c1ccc(F)cc1)CC2 [Fluspirilen] | ≤ 0 (inactive)
CN1CCC(OC(c2ccccc2)c2ccccc2)CC1 [Diphenylpyraline hydrochloride] | 0.332 (inactive)
Cc1ccc2c(c1)c1c3n2CCNC3CCC1 (configuration not stated) [Pirlindole mesylate] | 0.472 (inactive)
C1CCN2C[C@@H]3C[C@@H](CN4CCCC[C@@H]34)[C@H]2C1 [Sparteine (-)] | ≤ 0 (inactive)
N=C(N)NC(=O)c1nc(Cl)c(N)nc1N [Amiloride hydrochloride dihydrate] | ≤ 0 (inactive)
CC1=CC(=O)c2ccccc2C1=O [Menadione] | 0.873 (active)
CC[N+]1(C)C2CCC1CC(OC(=O)C1CCC(C(=O)OC3CC4CCC(C3)[N+]4(C)CC)(c3ccccc3)c3ccccc31)C2 (stereo not drawn) [beta- Belladonnine dichloroethylate] | ≤ 0 (inactive)

Case CCN(CC)CCOCCOC(=O)C1(c2ccccc2)CCCC1 [Carbetapentane citrate] , primary human hepatic stellate cells (donor 1), scaled lipid accumulation score recorded as 0.595 (inactive)

Case CS(=O)(=O)Nc1ccc([N+](=O)[O-])cc1Oc1ccccc1 [Nimesulide] , primary human hepatic stellate cells (donor 1), scaled lipid accumulation score recorded as 0.061 (inactive)

Case CN1CCN(C2=Nc3ccccc3Oc3ccc(Cl)cc32)CC1 [Loxapine succinate] , primary human hepatic stellate cells (donor 1), scaled lipid accumulation score recorded as 0.3 (inactive)

Case Clc1ccccc1C(c1ccccc1)(c1ccccc1)n1ccnc1 [Clotrimazole] , primary human hepatic stellate cells (donor 1), scaled lipid accumulation score recorded as ≤ 0 (inactive)

Case CC(C)NC[C@@H](O)COc1cccc2ccccc12 [(R)-Propranolol hydrochloride] , primary human hepatic stellate cells (donor 1), scaled lipid accumulation score recorded as 0.415 (inactive)

Case CC(C)NCC(O)COc1cccc2ccccc12 (configuration not stated) [Propranolol hydrochloride] , primary human hepatic stellate cells (donor 1), scaled lipid accumulation score recorded as 0.378 (inactive)

Case c1ccc(CN(CC2=NCCN2)c2ccccc2)cc1 [Antazoline hydrochloride] , primary human hepatic stellate cells (donor 1), scaled lipid accumulation score recorded as 0.544 (inactive)

----------
# System: primary human hepatic stellate cells (donor 1)
# testDescription: scaled lipid accumulation score (0 = DMSO-like, 1 = nortriptyline-like); higher = stronger HSC inactivation (lipid re-accumulation), active = hit call of the paper
# details: library stock concentration: 10 mM; 48 h
Structures can show the parent of a compound that is named as a salt. Hit rate of the full screen: of about 5,800 compounds, about 620 (11%) showed activity.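 The calls were made as follows: active = score above a cut-off or among the top three wells of a plate; in these data no inactive exceeds 0.85.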 Many of the other results were omitted from the sample, so actives are more common in it than they were.
Just give me one of these, please: active, inactive

These recorded examples may help you get a feel for the data.
CN1C2CCC1CC(OC(c1ccccc1)c1ccccc1)C2.CS(=O)(=O)O (stereo not drawn) [Benztropine mesylate] | active
CNCCC(Oc1ccc(C(F)(F)F)cc1)c1ccccc1 (stereo not drawn) [Fluoxetine hydrochloride] | inactive
CNCCC(Oc1ccc(C(F)(F)F)cc1)c1ccccc1 (stereo not drawn) [Fluoxetine] | inactive

Consider now this further compound.
In: Recorded test outcome, item O=C(Nc1nc2ccccc2n1CCN1CCOCC1)c1cccc([N+](=O)[O-])c1
Out: inactive

----------
# Lookup of reported scaled lipid accumulation score keyed by entry
# System: primary human hepatic stellate cells (donor 1)
# testDescription: scaled lipid accumulation score (0 = DMSO-like, 1 = nortriptyline-like); higher = stronger HSC inactivation (lipid re-accumulation), active = hit call of the paper
# details: library stock concentration: 1 mM; 48 h
Hit rate of the full screen: of about 5,800 compounds, about 620 (11%) showed activity. For the sample, actives were picked, then their nearest neighbours and some compounds at random.

Sample records with scaled lipid accumulation score:
CCCCC/C=C\C/C=C\CC/C=C\CCCC(=O)OC [Pinolenic Acid methyl ester] | ≤ 0 (inactive)
CC/C(=C\C(=N\O)C(N)=O)C(C)[N+](=O)[O-] (configuration not stated) | ≤ 0 (inactive)
CCCCCC(=O)CCC1C(=O)C=CC1C/C=C\CCCC(=O)O (configuration not stated) [13,14-dihydro-15-keto Prostaglandin J2] | ≤ 0 (inactive)
CC/C=C\C/C=C\C/C=C\CCCCCCCC(=O)NCCO [.alpha.-Linolenoyl Ethanolamide] | 0.006 (inactive)
Oc1ccc(Nc2nc(-c3ccc(Cl)cc3)cs2)cc1 [Sphingosine Kinase Inhibitor 2] | 0.058 (inactive)
CCCCC[C@H](O)/C=C/[C@H]1C=CC(=O)[C@@H]1CCCCCCC(=O)OCC [Prostaglandin A1 ethyl ester] | ≤ 0 (inactive)
CCCCC1C(=O)CCC2C(CC=CCCCC(=O)O)C(=O)CC12 (configuration not stated) [Bicyclo Prostaglandin E2] | ≤ 0 (inactive)
O=C(O)CCCCCC[C@H]1C(=O)C[C@@H](O)[C@@H]1/C=C/[C@@H](O)Cc1ccccc1 [16-phenyl tetranor Prostaglandin E1] | 0.017 (inactive)
CC(C)c1ccc2c(c1)CC[C@H]1[C@](C)(CN)CCC[C@]21C.Cl [Leelamine (hydrochloride)] | 0.297 (active)
Cc1cccc(Nc2nc(-c3ccncc3)cs2)c1 | ≤ 0 (inactive)

Reported scaled lipid accumulation score for O=C(CCCCc1ccccc1)C(F)(F)C(F)(F)F was ≤ 0 (inactive)

Reported scaled lipid accumulation score for CCCCC/C=C\C/C=C\C/C=C\C/C=C\CCCC(=O)OC(CO)CO [2-Arachidonoyl Glycerol] was ≤ 0 (inactive)

Reported scaled lipid accumulation score for CCCCC[C@H](O)/C=C/[C@@H]1[C@@H](C/C=C\CCCC(=O)OC(C)C)[C@@H](O)C[C@H]1O [Prostaglandin F2.alpha. isopropyl ester] was ≤ 0 (inactive)

----------
# Lookup of reported scaled lipid accumulation score keyed by entry
# Tested on: primary human hepatic stellate cells (donor 1)
# testDescription: scaled lipid accumulation score (0 = DMSO-like, 1 = nortriptyline-like); higher = stronger HSC inactivation (lipid re-accumulation), active = hit call of the paper
# details: library stock concentration: 5.1 mM; 48 h
Counter-ions that a name gives are not always drawn. Among all 5,800 compounds or so, about 620 (11%) showed activity. Many of the other results were omitted from the sample, so actives are more common in it than they were.

Sample records with scaled lipid accumulation score:
CC1(C)S[C@@H]2[C@H](NC(=O)COc3ccccc3)C(=O)N2[C@H]1C(=O)O | 0.003 (inactive)
CN(C)CCCN1c2ccccc2Sc2ccc(C(F)(F)F)cc21 [Triflupromazine hydrochloride] | 0.697 (inactive)
C#Cc1cccc(Nc2ncnc3cc(OCCOC)c(OCCOC)cc23)c1 | ≤ -0.006 (inactive)
CCCC(C(=O)OCCN(CC)CC)(c1ccccc1)c1ccccc1 [Proadifen hydrochloride] | 0.536 (inactive)
COc1cc2nc(N(C)CCCNC(=O)C3CCCO3)nc(N)c2cc1OC (stereo unspecified) | ≤ 0 (inactive)

Proceeding to the next molecule to report its scaled lipid accumulation score.
Case CN(C)CC[C@@H](c1ccc(Cl)cc1)c1ccccn1 [Chlorpheniramine (s) maleate] , primary human hepatic stellate cells (donor 1), scaled lipid accumulation score recorded as 0.181 (inactive)

----------
# Test system: primary human hepatic stellate cells (donor 1)
# testDescription: scaled lipid accumulation score (0 = DMSO-like, 1 = nortriptyline-like); higher = stronger HSC inactivation (lipid re-accumulation), active = hit call of the paper
# details: library stock concentration: 1 mM; 48 h
Where a name gives a salt, the structure may show the parent alone. Out of some 5,800 compounds screened, about 620 (11%) showed activity. The sample holds actives, similar compounds and a random draw of the others, so the mix is not that of the screen.
readout: scaled lipid accumulation score

Sample records with scaled lipid accumulation score:
CCCCC/C=C\C/C=C\CCCCCCCC(=O)OCC(COC(=O)CCCCCCCCCCCCCCC)OC(=O)CCCCCCC/C=C\CCCCCCCC (racemic) [1-Palmitoyl-2-oleoyl-3-linoleoyl-rac-glycerol] | 0.03 (inactive)
CCCCC[C@H](O)/C=C/[C@H]1CC[C@H](O)[C@@H]1C/C=C\CCCC(=O)O [11-deoxy Prostaglandin F2.alpha.] | ≤ 0 (inactive)
Nc1c2c(nc3ccccc13)CCCC2 [Tacrine (hydrochloride)] | 0.026 (inactive)

Reported scaled lipid accumulation score for CCCCC[C@@H](O)/C=C/[C@@H]1[C@H](C/C=C\CCCC(=O)O)[C@@H](O)C[C@H]1O [8-iso-15(R)-Prostaglandin F2.alpha.] was ≤ 0 (inactive)
